- target or test system: Orexin/Hypocretin receptor type 1 (Homo sapiens, UniProt O43613)
- Sequence (O43613 whole entry): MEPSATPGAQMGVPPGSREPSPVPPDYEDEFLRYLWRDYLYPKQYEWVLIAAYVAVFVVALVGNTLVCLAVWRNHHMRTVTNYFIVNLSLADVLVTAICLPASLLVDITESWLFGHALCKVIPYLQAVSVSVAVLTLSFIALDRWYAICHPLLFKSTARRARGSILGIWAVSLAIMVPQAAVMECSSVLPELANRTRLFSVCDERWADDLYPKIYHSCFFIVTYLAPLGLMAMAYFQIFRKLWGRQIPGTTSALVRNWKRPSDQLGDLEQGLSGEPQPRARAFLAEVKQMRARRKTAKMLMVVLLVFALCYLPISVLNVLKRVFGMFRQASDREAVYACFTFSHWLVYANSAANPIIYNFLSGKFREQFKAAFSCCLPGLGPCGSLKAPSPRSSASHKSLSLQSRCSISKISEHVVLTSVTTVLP
- protocol text: FLIPR Assay: Orexin antagonist activity was determined by measuring changes in intracellular calcium levels using a Ca2+ sensitive fluorescent dye. The changes in fluorescent signal were monitored by Fluorescent Imaging Plate Reader (FLIPR) technology available from Molecular Devices, LLC, U.S.A. Orexin mediated increases in intracellular Ca2+ concentration were readily detected upon activation with orexin-A. Twenty-four hours prior to the assay, RBL-2H3 cells stably expressing either human orexin receptor 1 or human orexin receptor 2 were seeded in cell culture medium in black, clear-bottom 384-well plates (commercially available from Corning Inc., U.S.A.) and grown overnight at 37° C., 5% CO2. On the day of the assay, cell culture media was removed and cells were loaded with Calcium 5 Dye (commercially sold by Molecular Devices, LLC, U.S.A.) for 1 hour at 37° C., 5% CO2. Test compounds (at 10 point half log concentration response curves from 10 uM) were added to cells for 15 minutes prior to the addition of orexin-A to all wells, to achieve a final concentration that produces approximately an 80% maximal response.
measurement type: IC50 (nM)
# unit: nM | format: bare number

q: # returns recorded IC50 (system: Orexin/Hypocretin receptor type 1 (Homo sapiens, UniProt O43613)) for "COc1ccc(Br)nc1C(=O)N[C@H]1CCC[C@@H]1Nc1nc2ccc(F)cc2s1"
a: 128
